Provide the reported Dmax at 10 µM of each item.
testedTarget: AR protein (Homo sapiens, UniProt P10275, T878A)
Construct: The percent AR protein degradation induced by these compounds at various concentrations in LNCaP cells; host or cells: LNCaP
Sequence (P10275 whole entry T878A): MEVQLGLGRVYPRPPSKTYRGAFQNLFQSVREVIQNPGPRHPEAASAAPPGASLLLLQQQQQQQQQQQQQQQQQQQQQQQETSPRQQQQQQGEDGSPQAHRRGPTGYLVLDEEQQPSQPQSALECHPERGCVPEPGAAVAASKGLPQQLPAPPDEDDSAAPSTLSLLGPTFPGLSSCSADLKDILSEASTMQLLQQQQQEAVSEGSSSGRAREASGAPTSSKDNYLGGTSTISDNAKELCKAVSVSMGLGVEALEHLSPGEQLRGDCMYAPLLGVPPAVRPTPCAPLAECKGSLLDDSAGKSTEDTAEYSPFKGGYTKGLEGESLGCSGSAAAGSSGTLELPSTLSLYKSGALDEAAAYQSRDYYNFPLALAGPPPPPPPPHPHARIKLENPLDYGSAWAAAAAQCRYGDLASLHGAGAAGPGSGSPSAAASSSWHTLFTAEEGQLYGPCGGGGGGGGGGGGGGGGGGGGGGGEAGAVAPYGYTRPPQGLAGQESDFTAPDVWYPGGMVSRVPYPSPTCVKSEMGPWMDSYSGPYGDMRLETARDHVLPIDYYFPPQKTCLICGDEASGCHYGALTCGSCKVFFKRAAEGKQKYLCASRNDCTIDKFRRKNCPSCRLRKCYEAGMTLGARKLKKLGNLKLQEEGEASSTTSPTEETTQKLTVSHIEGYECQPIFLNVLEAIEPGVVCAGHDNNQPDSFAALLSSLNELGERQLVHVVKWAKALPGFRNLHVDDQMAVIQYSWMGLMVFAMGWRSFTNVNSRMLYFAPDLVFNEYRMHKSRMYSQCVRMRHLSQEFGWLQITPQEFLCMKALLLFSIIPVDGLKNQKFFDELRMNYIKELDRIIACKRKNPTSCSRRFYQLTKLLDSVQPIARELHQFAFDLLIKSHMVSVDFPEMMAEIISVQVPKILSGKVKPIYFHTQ
testName: AR protein degradation in LNCaP cells (Western blotting)
Type: cell-based
testConditions: LNCaP; 10 μM, treatment time 6 h, average of three independent experiments; read-out: % AR protein degradation in LNCaP Cells
// note: answer is a bare numeric in %

Inquiry: Give its Dmax at 10 µM value. Item: Cc1ncsc1-c1ccc(CNC(=O)C2C[C@@H](O)CN2C(=O)[C@@H](NC(=O)CCCCCNC(=O)c2ccc(N3C(=S)N(c4ccc(C#N)c(C(F)(F)F)c4)C(=O)C3(C)C)cc2F)C(C)(C)C)cc1 (some centres unmarked)
Reply text: 29

Inquiry: Find the recorded Dmax at 10 µM belonging to Cc1ncsc1-c1ccc([C@H](C)NC(=O)C2C[C@@H](O)CN2C(=O)[C@@H](NC(=O)CN2CCN(c3ccc(C#Cc4ccc(N5C(=S)N(c6ccc(C#N)c(C(F)(F)F)c6)C(=O)C5(C)C)cc4)cn3)CC2)C(C)(C)C)cc1 (some centres unmarked) and report it.
Reply text: 28
